assay: Inhibition of farnesyltransferase
RECORDED ENDPOINT: pIC50

{"columns": ["COMPOUND", "QUANTITATIVE RESULT"],
 "data": [
  ["Cc1ccccc1-c1cc(C(OCc2ccccc2[N+](=O)[O-])c2cncn2C)ccc1C#N (configuration not stated)", 7.48],
  ["CCOc1ccc(-c2cc(C#N)ccc2COCc2cncn2Cc2ccc(C#N)cc2)cc1", 8.92],
  ["CCSc1ncccc1C(=O)N1CCC(NCc2cncn2Cc2ccc(C#N)cc2)C1=O (configuration not stated)", 8.32],
  ["Cc1ccccc1-c1cc(C(OCc2nc(-c3ccc(Cl)cc3)cs2)c2cncn2C)ccc1C#N (configuration not stated)", 7.53],
  ["N#Cc1ccc(Cn2cncc2COCc2ccc(C#N)cc2-c2ccc(Cl)c(Cl)c2)cc1", 9.43],
  ["Cc1cccc(COC(c2ccc(C#N)c(-c3ccccc3C)c2)c2cncn2C)c1 (configuration not stated)", 7.21],
  ["Cc1ccccc1COC(c1ccc(C#N)c(-c2ccccc2C)c1)c1cncn1C (configuration not stated)", 7.26]
]}

###

experiment: Inhibition of farnesyltransferase
RECORDED ENDPOINT: pIC50

{"columns": ["COMPOUND", "QUANTITATIVE RESULT"],
 "data": [
  ["Cc1ccccc1-c1cc(C(OCc2cccc(OC(F)(F)F)c2)c2cncn2C)ccc1C#N (stereo not drawn)", 8.08],
  ["Cc1ccccc1-c1cc(C(OCc2ccc(Cl)cc2)c2cncn2C)ccc1C#N (stereo not drawn)", 7.95],
  ["Cc1ccccc1-c1cc(C(OCc2ccc(Br)cc2)c2cncn2C)ccc1C#N (stereo not drawn)", 7.92]
]}

###

experiment: Inhibition of farnesyltransferase
RECORDED ENDPOINT: pIC50

A: Cn1cncc1C(OCc1ccc(C#N)cc1)c1ccc(C#N)c(-c2cccc(Cl)c2Cl)c1 (centres undefined)
B: N#Cc1ccc(Cn2cncc2CNC2CCN(C(=O)c3cccnc3O)C2=O)cc1 (centres undefined)
Which value of pIC50 is smaller, the one for A or the one for B ? Let me know the label of the one you choose.
B

###

experiment: Inhibition of farnesyltransferase
RECORDED ENDPOINT: pIC50

{"columns": ["MOLECULE", "RECORDED ENDPOINT", "QUANTITATIVE RESULT"],
 "data": [
  ["N#Cc1ccc(Cn2cncc2CNC2CCN(Cc3ccccc3Cl)C2=O)cc1 (stereo not given)", "pIC50", 8.28],
  ["N#Cc1ccc(Cn2cncc2COCc2ccc(C#N)cc2-c2ccc3ccccc3c2)cc1", "pIC50", 9.03],
  ["N#Cc1ccc(Cn2cncc2COCc2ccc(C#N)cc2-c2cccc3ccccc23)cc1", "pIC50", 8.88],
  ["Cn1cncc1C(OCc1ccc(C#N)c(N2CCC(CO)CC2)n1)c1ccc(C#N)c(-c2ccccc2C(F)(F)F)c1 (stereo not given)", "pIC50", 8.74],
  ["N#Cc1ccc(Cn2cncc2CN[C@H]2CCN(c3ccccc3)C2=O)cc1", "pIC50", 7.13]
]}

###

test: Inhibition of farnesyltransferase
RECORDED ENDPOINT: pIC50

{"columns": ["MOLECULE", "pIC50"],
 "data": [
  ["Cn1cncc1C(OCc1ccc(C#N)c(N2CCC[C@@H]2CO)n1)c1ccc(C#N)c(-c2ccccc2C(F)(F)F)c1 (some centres not stated)", 8.69],
  ["Cc1ccccc1-c1cc(C(OCc2cccc(I)c2)c2cncn2C)ccc1C#N (configuration not stated)", 7.69],
  ["COC(=O)c1cccc(COC(c2ccc(C#N)c(-c3ccccc3C)c2)c2cncn2C)c1 (configuration not stated)", 7.21],
  ["Cn1cncc1C(OCc1ccc(C#N)cc1)c1ccc(C#N)c(-c2ccccc2C(F)(F)F)c1 (configuration not stated)", 9.09],
  ["CC(=O)Nc1cccc(-c2cc(C#N)ccc2COCc2cncn2Cc2ccc(C#N)cc2)c1", 7.88],
  ["Cc1ccccc1-c1cc(C(OCc2ccccc2)c2cncn2C)ccc1C#N (configuration not stated)", 7.07],
  ["N#Cc1ccc(Cn2cncc2CNC2CCN(c3ccc(Cl)cc3)C2=O)cc1 (configuration not stated)", 7.68],
  ["Cc1ccccc1-c1cc(C(OCc2cccc3cccnc23)c2cncn2C)ccc1C#N (configuration not stated)", 7.22],
  ["CC(C)(C)c1ccc(-c2cc(C#N)ccc2COCc2cncn2Cc2ccc(C#N)cc2)cc1", 9.35],
  ["N#Cc1ccc(Cn2cncc2CCN[C@H]2CCN(Cc3ccccc3)C2=O)cc1", 6.56],
  ["Cc1ccccc1-c1cc(C(OCc2ccc(C#N)cc2)c2cncn2C)ccc1C#N (configuration not stated)", 8.39],
  ["N#Cc1ccc(Cn2cncc2COCc2cnc(C#N)cc2-c2cccc(Cl)c2)cc1", 8.36],
  ["COc1ccc(-c2cc(C#N)ccc2COCc2cncn2Cc2ccc(C#N)cc2)cn1", 8.11],
  ["Cc1ccccc1-c1cc(C(OCc2ccc(C(F)(F)F)cc2)c2cncn2C)ccc1C#N (configuration not stated)", 7.92],
  ["Cn1cncc1C(OCc1ccc(C#N)c(NCC2CCCO2)n1)c1ccc(C#N)c(-c2ccccc2C(F)(F)F)c1 (configuration not stated)", 8.17],
  ["CSc1ncccc1C(=O)N1CCC(NCc2cncn2Cc2ccc(C#N)cc2)C1=O (configuration not stated)", 7.08],
  ["Cc1ccccc1-c1cc(C(OCc2cccc(Cl)c2)c2cncn2C)ccc1C#N (configuration not stated)", 7.72],
  ["Cc1ccccc1-c1cc(C(OCc2c(Cl)cccc2Cl)c2cncn2C)ccc1C#N (configuration not stated)", 7.09],
  ["Cc1ccccc1-c1cc(C(OCc2ccc([N+](=O)[O-])cc2)c2cncn2C)ccc1C#N (configuration not stated)", 8.12],
  ["N#Cc1ccc(Cn2cncc2COc2ccc(C#N)c(-c3cccc4ccccc34)c2)cc1", 9.42],
  ["Cc1ccccc1-c1cc(C(OCc2cccc(F)c2)c2cncn2C)ccc1C#N (configuration not stated)", 7.42],
  ["N#Cc1ccc(OCc2cncn2Cc2ccc(C#N)c(-c3cccc4ccccc34)c2)nc1", 9.04],
  ["N#Cc1ccc(Cn2cncc2CNC2CCN(c3cccnc3)C2=O)cc1 (configuration not stated)", 7.07],
  ["Cc1ccccc1-c1cc(C(OCc2ccc(OC(F)(F)F)cc2)c2cncn2C)ccc1C#N (configuration not stated)", 7.79],
  ["N#Cc1ccc(Cn2cncc2CN(Cc2ccccc2)C2CCN(Cc3ccccc3)C2=O)cc1 (configuration not stated)", 7.17],
  ["Cc1ccccc1-c1cc(C(OCc2ccccc2Cl)c2cncn2C)ccc1C#N (configuration not stated)", 7.31],
  ["N#Cc1ccc(COCc2cncn2Cc2ccc(C#N)nc2)c(-c2ccc3c(c2)OCO3)c1", 8.52]
]}

Data provenance is ChEMBL document CHEMBL1795312.
